Sourced from patent US20120258108A1

biological target: Recombinant Human DLL4 (human, UniProt Q9NR61 27-524); experiment: SPR (BIACORE)
Sequence (Q9NR61 27-524 limits assumed): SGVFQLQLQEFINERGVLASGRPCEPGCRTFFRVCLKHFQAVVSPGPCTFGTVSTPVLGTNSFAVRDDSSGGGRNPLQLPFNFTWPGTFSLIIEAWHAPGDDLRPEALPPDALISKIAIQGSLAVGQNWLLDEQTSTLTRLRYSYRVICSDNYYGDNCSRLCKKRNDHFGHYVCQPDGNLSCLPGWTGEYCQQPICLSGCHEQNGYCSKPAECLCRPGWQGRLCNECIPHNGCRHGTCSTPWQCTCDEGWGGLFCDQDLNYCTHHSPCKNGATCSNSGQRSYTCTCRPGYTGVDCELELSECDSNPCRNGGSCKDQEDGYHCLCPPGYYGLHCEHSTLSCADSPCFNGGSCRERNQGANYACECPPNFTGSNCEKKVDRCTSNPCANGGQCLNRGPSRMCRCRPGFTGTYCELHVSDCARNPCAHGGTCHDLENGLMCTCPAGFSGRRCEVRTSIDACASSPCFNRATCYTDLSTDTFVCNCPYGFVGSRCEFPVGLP

BINDER | koff / s⁻¹
AB299 (antibody, human IgG1, kappa, V domains shown, CDR-grafted parent antibody) VH: EVQLVESGGGLVQPGGSLRLSCAASGFTFSNFPMAWVRQAPGKGLEWVATISSSDGTTYYRDSVKGRFTISRDNSKNTLYLQMNSLRAEDTAVYYCARGYYNSPFAYWGQGTLVTVSS VL: DIQMTQSPSSLSASVGDRVTITCRASEDIYSNLAWYQQKPGKAPKLLIYDTNNLADGVPSRFSGSGSGTDFTLTISSLQPEDFATYYCQQYNNYPPTFGQGTKVEIKR | 0.0039
AB290 (antibody, human IgG1, kappa, V domains shown, CDR-grafted parent antibody) VH: EVTLRESGPALVKPTQTLTLTCTASGFTFSNFPMAWVRQPPGKGLEWVATISSSDGTTYYRDSVKGRFTISRDNSKNQLVLTMTNMDPVDTATYYCARGYYNSPFAYWGQGTTVTVSS VL: DIVMTQSPDSLAVSLGERATINCRASEDIYSNLAWYQQKPGQAPKLLIYDTNNLADGVPDRFSGSGSGTDFTLTISSLQAEDVAVYYCQQYNNYPPTFGGGTKVEIKR | 0.0039
AB309 (antibody, human IgG1, kappa, V domains shown, CDR-grafted parent antibody) VH: EVQLVESGGGLVQPGRSLRLSCAASGFTFSNFPMAWVRQAPGKGLEWVATISSSDGTTYYRDSVKGRFTISRDNAKNSLYLQMNSLRAEDTAVYYCARGYYNSPFAYWGQGTLVTVSS VL: DIQMTQSPSSLSASVGDRVTITCRASEDIYSNLAWYQQKPGKAPKLLIYDTNNLADGVPSRFSGSGSGTDFTLTISSLQPEDVATYYCQQYNNYPPTFGQGTKVEIKR | 0.0028
AB306 (antibody, human IgG1, kappa, V domains shown, CDR-grafted parent antibody) VH: EVQLVESGGGLVQPGRSLRLSCAVSGGSISSSSYYWGWIRQAPGKGLEWIGDIYYTGSTYYNPSLKSRVTISVDTAKNSFYLQMNSLRAEDTAVYYCARQALAMGGGSDKWGQGTLVTVSS VL: DYQLTQSPSSLSASVGDRVTITCSGQRLGDKYASWYQQKPGKSPKLVIYEDSKRPSGIPSRFSGSNSGDDATLTISSLQPEDVATYYCQAWDRDTGVFGQGTKVEIKR | 0.00015
